Target: UniProtKB P78329
Sequence (P78329 whole entry): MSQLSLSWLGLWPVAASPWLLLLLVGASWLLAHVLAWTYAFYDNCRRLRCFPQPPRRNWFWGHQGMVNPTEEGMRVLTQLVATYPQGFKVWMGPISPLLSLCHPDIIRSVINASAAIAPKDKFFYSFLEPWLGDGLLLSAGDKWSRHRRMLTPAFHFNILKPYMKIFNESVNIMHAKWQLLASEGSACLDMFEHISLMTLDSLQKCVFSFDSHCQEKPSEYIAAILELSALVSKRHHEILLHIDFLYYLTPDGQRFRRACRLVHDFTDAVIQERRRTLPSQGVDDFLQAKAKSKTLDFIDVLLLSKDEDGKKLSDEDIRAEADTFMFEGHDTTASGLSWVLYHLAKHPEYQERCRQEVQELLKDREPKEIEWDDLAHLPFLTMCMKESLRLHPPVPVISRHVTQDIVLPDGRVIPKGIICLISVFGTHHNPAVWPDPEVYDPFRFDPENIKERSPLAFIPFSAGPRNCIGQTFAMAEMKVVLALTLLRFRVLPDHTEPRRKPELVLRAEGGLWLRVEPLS
Test: Inhibition of recombinant human CYP4F2 expressed in baculovirus-infected insect cells in presence of arachidonic acid and NADPH incubated for 15 mins by jump-dilution assay
Assay type: ADME
pIC50: −log10 of the molar value.

[
  {
    "item smiles": "O=c1cc(-c2ccc(C(F)(F)F)cc2)oc2ccccc12",
    "pIC50": 6.06
  }
]

* * *

Examples of compounds with documented solubility thermodynamic follow.
Test: Solubility of the compound in phospahte-buffered saline buffer at pH 7.4 by shake flask method
Format: physicochemical
Conditions: phosphate-buffered saline

[
  {
    "item smiles": "O=c1cc(-c2ccc(C(F)(F)F)cc2)oc2ccccc12",
    "solubility thermodynamic [µM]": 3.4
  },
  {
    "item smiles": "COc1ccc2oc(-c3ccc(C(F)(F)F)cc3)cc(=O)c2c1",
    "solubility thermodynamic [µM]": 1
  }
]

* * *

Biological target: CYP450 (20-HETE formation) (Homo sapiens, UniProt P04798+P05177+P05181+P08684+P10632+P10635+P11509+P11712+P13584+P20813+P20815+P20853+P24462+P24903+P33260+P33261+P51589+P78329+P98187+Q02928+Q08477+Q16678+Q16696+Q5TCH4+Q6VVX0+Q7Z449+Q8TAV3+Q96SQ9+Q9HB55)
Experiment: Inhibition of CYP450 in human liver microsomes assessed as inhibition of 20-HETE formation in presence of arachidonic acid and NADPH by multi-enzyme assay based LC-MS/MS analysis relative to control
Type: ADME, Microsome
Details: probe arachidonic acid
reported metric: IC50 (nM)

[
  {
    "item smiles": "O=c1cc(-c2ccc(C(F)(F)F)cc2)oc2ccccc12",
    "unit string": "nM",
    "reported": 2800
  }
]

* * *

Experiment: Drug recovery in human HCT-116 cells incubated for 24 hrs
Type: ADME, cell-based
Settings: read-out: Drug recovery
reported metric: remaining at 24 h

[
  {
    "item smiles": "O=c1cc(-c2ccc(C(F)(F)F)cc2)oc2ccccc12",
    "reported": "89%"
  }
]

* * *

Molecular target: CYP450 (20-HETE formation) (Homo sapiens, UniProt P04798+P05177+P05181+P08684+P10632+P10635+P11509+P11712+P13584+P20813+P20815+P20853+P24462+P24903+P33260+P33261+P51589+P78329+P98187+Q02928+Q08477+Q16678+Q16696+Q5TCH4+Q6VVX0+Q7Z449+Q8TAV3+Q96SQ9+Q9HB55)
Assay: Inhibition of CYP450 in human HCT-116 cells assessed as 20-HETE formation in presence of arachidonic acid incubated for 15 mins by multi-enzyme assay based LC-MS/MS analysis relative to control
Type: ADME, cell-based
Settings: probe arachidonic acid

[
  {
    "item smiles": "O=c1cc(-c2ccc(C(F)(F)F)cc2)oc2ccccc12",
    "unit string": "nM",
    "IC50 at 15 min": 1900
  }
]
